Where these numbers come from: the RNAGym collection of RNA variant scans (doi:10.1073/pnas.2313332121)

B1: TPR t1 (parent)
chain: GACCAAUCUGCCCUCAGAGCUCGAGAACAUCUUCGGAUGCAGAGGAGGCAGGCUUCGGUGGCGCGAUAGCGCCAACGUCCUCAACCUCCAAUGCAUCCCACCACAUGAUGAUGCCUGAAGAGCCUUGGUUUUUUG

- Variants of: B1
- PROCEDURE_SUMMARY: polymerase ribozyme fitness, log enrichment relative to wild type (log ratio); higher = more active; in vitro selection for triplet polymerase activity
The following variants are listed with their measured polymerase ribozyme fitness (log ratio) values.
Number only, no unit.

Guide cases for polymerase ribozyme fitness (log ratio), answers given:
A29G A43G G107U C124U	-6.92
G10U A75U G77A C86A	-1.69
G51A C53A U133A	-2.17
G17U U38A G61U U125A	-3.94
G45U C86U U87A C124U U130C	-1.19
C3U C115U	-1.53

Name the recorded polymerase ribozyme fitness (log ratio) for A43C U54A . -2.54

Name the recorded polymerase ribozyme fitness (log ratio) for G63A C102U U133G . -2.77

Name the recorded polymerase ribozyme fitness (log ratio) for G17U G48U C70U U78C U87G U112A . -4.19

Name the recorded polymerase ribozyme fitness (log ratio) for G39U U106C . -0.461

Name the recorded polymerase ribozyme fitness (log ratio) for U78G U109A . -6.21
